Data origin: the supplement of paper PMC12645437

Molecular target: T1, CRBN, Q96SW2;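 note: pooled lentiviral library of zinc finger degron-EGFP fusions in mCherry-positive Jurkat cells, FACS-sorted after compound exposure, with degron abundance counted by next-generation sequencing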
T1 chain: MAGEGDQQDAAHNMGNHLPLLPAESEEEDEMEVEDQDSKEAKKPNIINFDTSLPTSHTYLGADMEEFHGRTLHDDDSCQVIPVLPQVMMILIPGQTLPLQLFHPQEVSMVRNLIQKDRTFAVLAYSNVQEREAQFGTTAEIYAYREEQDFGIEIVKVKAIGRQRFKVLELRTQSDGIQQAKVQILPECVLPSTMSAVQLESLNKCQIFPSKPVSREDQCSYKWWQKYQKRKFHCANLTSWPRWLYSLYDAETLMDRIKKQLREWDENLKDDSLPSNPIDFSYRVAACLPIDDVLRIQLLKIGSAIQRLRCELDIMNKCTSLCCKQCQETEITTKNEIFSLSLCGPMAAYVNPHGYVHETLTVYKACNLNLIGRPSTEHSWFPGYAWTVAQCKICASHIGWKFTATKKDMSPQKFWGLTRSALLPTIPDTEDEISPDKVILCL
Assay: log2 fold change of degron read counts, EGFP-low vs EGFP+ sorted cells (limma voom), compound-induced degradation; higher = more compound-induced degradation of the degron-EGFP fusion; degrons are variants of IKZF1/3 zinc finger 2; compound dose not given here
Settings: Jurkat; 18 h; compound: compound 22 (5-morpholino-thalidomide)
Whole data set: some 8,300 sequences, median “log2 fold change of degron read counts, EGFP-low vs EGFP+ sorted cells (limma voom), compound-induced degradation” near -1.1, cut for the highest 2% near 3.2. This is one part of a sample in which the highest values are shown more often than they occur.
Quick reference: log2 fold change of degron read counts of the listed items.
# output: bare number, no unit

Query :: // lookup log2 fold change of degron read counts for FQCEVCGAPFTQKGNLLRHIKL [46F_47Q_49E_50V_52G_53A_54P_55F_67L_, Q9UKT9]
Result :: 3.49

Query :: Quick one: log2 fold change of degron read counts for FVCEVCGAPFTQKGNLLRHIKL [46F_47V_49E_50V_52G_53A_54P_55F_67L_, Q9UKT9] ?
Result :: 3.61
